- TARGET_UNDER_TEST: 5HT2 receptors (Rattus norvegicus)
- Construct: Ring preparations of external rat jugular veins were used; tissue Harlan Sprague-Dawley, Inc., Cumberland, IN (animals)
- Sequence (P14842 whole entry): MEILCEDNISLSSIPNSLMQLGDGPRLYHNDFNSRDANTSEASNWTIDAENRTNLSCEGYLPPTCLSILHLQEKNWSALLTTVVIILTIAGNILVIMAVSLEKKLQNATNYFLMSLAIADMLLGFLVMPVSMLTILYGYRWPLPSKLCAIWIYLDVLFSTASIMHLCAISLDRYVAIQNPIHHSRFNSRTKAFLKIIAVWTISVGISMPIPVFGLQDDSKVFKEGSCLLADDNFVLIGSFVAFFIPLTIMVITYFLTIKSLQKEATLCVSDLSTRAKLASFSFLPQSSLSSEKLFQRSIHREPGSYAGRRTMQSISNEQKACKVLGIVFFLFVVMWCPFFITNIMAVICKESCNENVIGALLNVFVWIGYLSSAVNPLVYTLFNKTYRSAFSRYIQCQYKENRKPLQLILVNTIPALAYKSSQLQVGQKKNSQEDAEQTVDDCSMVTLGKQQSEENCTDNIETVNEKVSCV
- ASSAY_EXPLANATION: Antagonism of serotonin-induced contractions in the rat jugular vein (in vitro 5HT2 affinity)
- CONDITION_SUMMARY: rat jugular vein
REPORTED_METRIC: Kd

Fill in: Kd of CC(C)n1cc2c3c(cccc31)C1C[C@@H](C(=O)O)CN(C)[C@@H]1C2 (stereo partly shown) [II, 1-isopropyldihydrolysergic acid] is ___
~100 nM

// provenance: patent US4914107A
